- Tested System: rat NaPi-2b (Rattus norvegicus, UniProt Q9JJ09)
- Sequence (Q9JJ09 whole entry): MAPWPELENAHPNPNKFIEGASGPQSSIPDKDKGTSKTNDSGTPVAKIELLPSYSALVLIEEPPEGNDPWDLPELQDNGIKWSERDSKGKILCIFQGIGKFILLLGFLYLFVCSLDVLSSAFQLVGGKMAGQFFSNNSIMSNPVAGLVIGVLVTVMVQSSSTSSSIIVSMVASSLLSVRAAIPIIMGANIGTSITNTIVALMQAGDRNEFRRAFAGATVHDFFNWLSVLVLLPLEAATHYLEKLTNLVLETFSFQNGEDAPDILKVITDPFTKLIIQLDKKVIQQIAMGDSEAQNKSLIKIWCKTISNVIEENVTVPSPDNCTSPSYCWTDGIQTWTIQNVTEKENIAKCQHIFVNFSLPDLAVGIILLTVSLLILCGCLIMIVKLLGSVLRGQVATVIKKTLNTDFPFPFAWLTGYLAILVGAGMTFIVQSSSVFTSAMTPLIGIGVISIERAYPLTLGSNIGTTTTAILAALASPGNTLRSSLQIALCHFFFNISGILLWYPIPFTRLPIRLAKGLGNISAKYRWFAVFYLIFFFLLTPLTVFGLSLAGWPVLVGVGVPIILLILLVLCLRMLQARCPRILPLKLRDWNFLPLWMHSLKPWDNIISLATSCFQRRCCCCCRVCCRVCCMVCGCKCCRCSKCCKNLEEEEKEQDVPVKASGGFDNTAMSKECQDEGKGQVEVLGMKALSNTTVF
- Test Method Notes: Sodium-dependent phosphate uptake of Xenopus oocytes which expressed NaPi-2b (32P)
- Run Parameters: Xenopus oocytes expressing rat NaPi-2b, 32P radioactive phosphorus; read-out: IC50 (phosphate uptake inhibitory activity)
- Experimental: Pharmacological Test Example 1 Experiment of Sodium-Dependent Phosphate Uptake of Xenopus oocytes which Expressed NaPi-2b Degenerate primers were prepared from sequences of mouse NaPi-2b disclosed in Hilfiker H. et al., Pro Natl Acad Sci USA, 95 (24): 14564-14569, […] and sequences of human and rat NaPi-2a disclosed in Magagnin S. et al., Proc Natl Aca Sci USA, 90 (13): 5979-5983, 1993. RNA was extracted from the rat small intestine using ISOGEN; manufactured by NIPPON GENE CO., LTD (Japan). […]
// assign yes if IC50 falls strictly below 9 µM, else no (ties count as no)

As a guide, the following entries are already answered.
- Molecule: "COc1ccc(C(=O)Nc2ccc(I)cc2C(=O)N/N=C/c2ccc(C)c(C)c2)cc1OC [Compound 208]"
  Tested System: "rat NaPi-2b (Rattus norvegicus, UniProt Q9JJ09)"
  Class: "yes"
- Molecule: "O=C(Nc1ccc(OCCCCF)cc1C(=O)N/N=C/c1cccc(F)c1)c1cccc(CSCCO)c1 [Compound 1051]"
  Tested System: "rat NaPi-2b (Rattus norvegicus, UniProt Q9JJ09)"
  Class: "yes"
- Molecule: "CCSCCNCc1ccc(C(=O)Nc2ccc(Br)cc2C(=O)N/N=C/c2ccc(OC)cc2)cc1 [Compound 770]"
  Tested System: "rat NaPi-2b (Rattus norvegicus, UniProt Q9JJ09)"
  Class: "no"
- Molecule: "CCSCCNCc1ccc(C(=O)Nc2ccc(Br)cc2C(=O)N/N=C/c2ccc(Cl)c(C(F)(F)F)c2)cc1 [Compound 769]"
  Tested System: "rat NaPi-2b (Rattus norvegicus, UniProt Q9JJ09)"
  Class: "yes"
- Molecule: "COc1ccc(/C=N/NC(=O)c2cc(Cl)ccc2NC(=O)c2cccc(CN3CCC(N4CCCCC4)CC3)c2)cc1 [Compound 375]"
  Tested System: "rat NaPi-2b (Rattus norvegicus, UniProt Q9JJ09)"
  Class: "no"

Would you kindly verify if IC50 of COc1ccc(/C=N/NC(=O)c2c(C)csc2NC(=O)c2cccc(CN3CCC4(CC3)OCCO4)c2)cc1 [Compound 837] is strictly less than 9 µM?
no

Confirm or reject: IC50 of O=C(Nc1ccc(Cl)cc1C(=O)N/N=C/c1ccc(F)cc1)c1ccncc1 [Compound 190] lies strictly below 9 µM
no

State whether 9 µM exceeds IC50 recorded for CCN(CC)CCN(CCN(CC)CC)Cc1cccc(C(=O)Nc2sc3c(c2C(=O)N/N=C/c2ccc(Cl)c(C(F)(F)F)c2)CCCC3)c1 [Compound 849] .
yes

Input CCN(CC)CCSCc1cccc(C(=O)Nc2ccc(N3CCCCC3)cc2C(=O)NN=Cc2ccc(OC)cc2)c1 [Compound 879] ; condition: IC50 strictly below 9 µM. Does it hold?
yes

In plain terms, does CCN(CC)CCN(C)Cc1cccc(C(=O)Nc2ccc(N3CCOCC3)cc2C(=O)N/N=C/c2ccc(C)c(C)c2)c1 [Compound 1074] come in under 9 µM for IC50?
yes

Answer whether the molecule COc1ccc(C(=O)Nc2ccccc2C(=O)N/N=C/c2ccc(OC)c(Br)c2)cc1 [Compound 100] has IC50 strictly less than 9 µM
yes

IC50 strictly < 9 µM for this molecule? CCN(CC)CCN(C)Cc1cccc(C(=O)Nc2ccc(Cl)cc2C(=O)N/N=C/c2cccc(C)c2)c1 [Compound 381]
yes

Determine if COc1ccc(/C=N/NC(=O)c2cc(Cl)ccc2NC(=O)c2cccc(CSCC(O)CO)c2)cc1 (stereo not drawn) [Compound 1011] shows IC50 strictly lower than 9 µM.
yes

Report whether reported IC50 is lower than 9 µM (strictly) for CCN(CC)CCN(CCN(CC)CC)Cc1cccc(C(=O)Nc2ccc(N3CCCCC3)cc2C(=O)N/N=C/c2ccc(Cl)c(C(F)(F)F)c2)c1 [Compound 909]
yes

Check if IC50 falls below 9 µM for CCN(CC)CCN(C)Cc1cccc(C(=O)Nc2ccc(OCCOC)cc2C(=O)N/N=C/c2ccc(C)cc2)c1 [Compound 1026] .
yes

I wonder whether Cc1csc(NC(=O)c2cccc(CN3CCN(CCO)CC3)c2)c1C(=O)N/N=C/c1ccc(F)cc1 [Compound 577] has IC50 below 9 µM. Can you tell?
yes

State whether 9 µM exceeds IC50 recorded for Cc1ccc(/C=N/NC(=O)c2c(NC(=O)c3cccc(CN4CCC(O)CC4)c3)sc3c2CCCC3)cc1C [Compound 633] .
yes

A record lists Cc1ccc(/C=N/NC(=O)c2cc(Br)ccc2NC(=O)c2ccc(CN(C)CC(O)c3ccc(O)cc3)cc2)cc1C (stereo not drawn) [Compound 724] . Is its IC50 below 9 µM?
no

is_below(IC50, 9 µM) for Cc1ccc(/C=N/NC(=O)c2ccccc2NC(=O)c2cccc(OC(F)(F)F)c2)cc1 [Compound 124] ?
yes

In plain terms, does O=C(Nc1ccc(N2CCSCC2)cc1C(=O)N/N=C/c1ccc(Cl)c(C(F)(F)F)c1)c1cccc(CSCCO)c1 [Compound 927] come in under 9 µM for IC50?
yes
